// provenance: PubChem BioAssay (NCATS)

assay: qHTS drug screen for cell cycle checkpoint inhibitors in PARPi-resistant BRCA-mutant ovarian cancer cell lines. (AID 1963452); details: PEO1/OlaR viability, CellTiter-Glo luminescence, 96 h; measured here: PEO4 Z-AUC; stronger effect = lower value
measure-name: Z-AUC
Please reply with the value in numeric form only.

Field Z-AUC (entry O=C(NCCCCN1CCOCC1)c1cc2ccccc2o1 ) reads 1.23

// Z-AUC value for C[C@@H](O[C@H]1OCCN(Cc2n[nH]c(=O)[nH]2)[C@@H]1c1ccc(F)cc1)c1cc(C(F)(F)F)cc(C(F)(F)F)c1 : -0.245

Summary for this compound, COc1ccnc(CS(=O)c2nc3ccc(OC(F)F)cc3[nH]2)c1OC (stereo not given) : Z-AUC is 1.19

Entry under test: CC1(C)CC(=O)c2c(C(F)(F)F)nn(-c3ccc(C(N)=O)c(NC4CCC(O)CC4)c3)c2C1 (stereo not given) . Its Z-AUC was -1.31

Field Z-AUC (entry O=C(O)Cc1cccc(OCCCN(Cc2cccc(C(F)(F)F)c2Cl)CC(c2ccccc2)c2ccccc2)c1 ) reads 0.165
